These data points were gathered from paper doi:10.1101/507434v1.

test: Plasma and liver concentration of antiviral peptides after oral gavage in mice; type: in vivo, female mice; conditions: female, mouse, liver, po, 60 mg/kg
Bridge positions count the residues as written; N and C are the ends. Square brackets hold non-standard residues; d marks the D form. Peptide text beside a SMILES is read from it.
measurementKind: level at time molar at 2 h (nM)
Give bare numbers, in nM.

Name the recorded level at time molar at 2 h for CC(=O)NCC(=O)NCC(=O)N[C@@H](Cc1c[nH]cn1)C(=O)N[C@H]1CC(=O)NCCCC[C@@H](C(=O)N[C@@H](C(=O)N2CCC[C@@H]2C(N)=O)C(C)C)NC(=O)[C@H](CCCCN)NC(=O)[C@H](Cc2ccccc2)NC(=O)[C@H](CCCNC(=N)N)NC(=O)[C@H](Cc2ccc(O)cc2)NC(=O)[C@@H]2CCCN2C1=O [TCMP03] (Ac-GGHDPYRFKK[dV][dP]-NH2; lactam 4-10) .
30
